# system: GABA-A receptor; anion channel (Rattus norvegicus) (UniProt O09028+P15431+P18506+P18508+P19969+P20236+P23574+P23576+P28471+P28473+P30191+P62813+P63079+P63138+Q91ZM7+Q9ES14)
# assay_protocol: Percent inhibition of rat benzodiazepine receptor assayed using [3H]-flumazenil radioligand at 10 um concentration
# Assay type: protein-complex assay
readout: inhibition (%)
Please reply with the bare figure in % and do not write the unit itself.

Check out these entries, answers already filled in.
Input `CCCN(CCC)C(=O)C(=O)c1c(-c2ccccc2)[nH]c2ccc(Cl)cc12` . Output inhibition: 10

Input `CCCN(CCC)C(=O)C(=O)c1c(-c2ccc(Cl)cc2)[nH]c2ccc(Cl)cc12` . Output inhibition: 5

Input `O=C(C(=O)N1CCCCC1)c1c(-c2ccccc2)[nH]c2ccccc12` . Output inhibition: 3

Input `CCCCCCN(CCCCCC)C(=O)C(=O)c1c(-c2ccc(Cl)cc2)[nH]c2ccccc12` . Output inhibition: 4

Input `CCCN(CCC)C(=O)C(=O)c1c(-c2ccccc2)[nH]c2ccccc12` . Output inhibition: 16

Input `CCCN(CCC)C(=O)Cc1c(-c2ccc(Cl)cc2)nc2ccc(Cl)cn12` . Output inhibition: 28

Input `CCCCN(CCCC)C(=O)C(=O)c1c(-c2ccccc2)[nH]c2ccc(Cl)cc12` . Output inhibition: 13

Input `CCCN(CCC)C(=O)C(=O)c1c(-c2ccc(F)cc2)[nH]c2ccccc12` . Output inhibition: 4

Input `CCCN(CCC)C(=O)C(=O)c1c(-c2ccc(C)cc2)[nH]c2ccccc12` . Output inhibition: 7

Input `CCCCCCN(CCCCCC)C(=O)C(=O)c1c(-c2ccc(Cl)cc2)[nH]c2ccc(Cl)cc12` . Output inhibition: 3

New cases:
Input `CCCCCCN(CCCCCC)C(=O)C(=O)c1c(-c2ccc(C)cc2)[nH]c2ccccc12` . Output inhibition: 6

* * *

Reported Activity values follow for various molecules
# system: Cholesterol side-chain cleavage enzyme, mitochondrial (Rattus norvegicus)
# Sequence (P14137 whole entry): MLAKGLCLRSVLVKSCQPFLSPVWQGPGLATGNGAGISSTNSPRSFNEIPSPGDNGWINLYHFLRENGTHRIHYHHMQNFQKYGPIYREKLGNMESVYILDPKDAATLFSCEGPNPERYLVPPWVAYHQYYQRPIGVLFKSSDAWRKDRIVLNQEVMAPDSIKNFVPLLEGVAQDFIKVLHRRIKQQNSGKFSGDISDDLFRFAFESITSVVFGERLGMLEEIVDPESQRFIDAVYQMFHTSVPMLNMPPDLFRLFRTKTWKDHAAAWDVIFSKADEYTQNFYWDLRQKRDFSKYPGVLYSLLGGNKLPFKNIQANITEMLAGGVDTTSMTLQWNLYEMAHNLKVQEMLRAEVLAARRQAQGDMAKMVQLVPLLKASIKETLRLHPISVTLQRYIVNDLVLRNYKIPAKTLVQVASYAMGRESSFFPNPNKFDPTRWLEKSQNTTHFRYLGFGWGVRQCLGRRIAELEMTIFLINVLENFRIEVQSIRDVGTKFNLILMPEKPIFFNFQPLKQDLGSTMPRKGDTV
# assay_protocol: Stimulation of pregnenolone formation from rat C6 glioma cells
# Format: functional, cell-based
# Parameters: concentration or dose not given beside the values
Please reply with the bare figure in % and do not write the unit itself.

Check out these entries, answers already filled in.
Input `CCCCCN(CCCCC)C(=O)C(=O)c1c(-c2ccccc2)[nH]c2ccccc12` . Output Activity: 35

Input `CCCN(CCC)C(=O)C(=O)c1c(-c2ccc(Cl)cc2)[nH]c2ccc(Cl)cc12` . Output Activity: 49

Input `CCCN(CCC)C(=O)C(=O)c1c(-c2ccccc2)[nH]c2ccc(Cl)cc12` . Output Activity: 10

Input `CCCCCCN(CCCCCC)C(=O)C(=O)c1c(-c2ccccc2)[nH]c2ccc(Cl)cc12` . Output Activity: 31

Input `CCCCN(CCCC)C(=O)C(=O)c1c(-c2ccc(C)cc2)[nH]c2ccccc12` . Output Activity: 58

New cases:
Input `CCCN(CCC)C(=O)C(=O)c1c(-c2ccc(Cl)cc2)[nH]c2ccccc12` . Output Activity: 40

Input `CCCCCCN(CCCCCC)C(=O)C(=O)c1c(-c2ccc(C)cc2)[nH]c2ccccc12` . Output Activity: 77

Input `CCCN(CCC)C(=O)C(=O)c1c(-c2ccc(C)cc2)[nH]c2ccccc12` . Output Activity: 148

Input `CCCN(CCC)C(=O)C(=O)c1c(-c2ccc(F)cc2)[nH]c2ccccc12` . Output Activity: 20

Input `CCCCN(CCCC)C(=O)C(=O)c1c(-c2ccccc2)[nH]c2ccc(Cl)cc12` . Output Activity: 5
